Item-by-item account of Response rate % (average)
System: human immortalized keratinocytes (HaCaT)
Assay: CCK-8 cell viability: alleviation of proliferative toxicity of anti-tumor agents on HaCaT (Table 8-1)
Assay type: cell-based
Settings: Selumetinib (5 μM), NO-NSAID 100 μM, percentage increase in viable cells vs anti-tumor agent alone
Description: Experiments were conducted using various epithelial cells: Examples 47-51 used human immortalized keratinocytes (HaCaT) with corresponding results in Table 8-1; Examples 52-56 used human oral keratinocytes (HOK) with results in Table 8-2; Examples 57-61 used gastric epithelial cells (GES-1) with results in Table 8-3; Examples 62-66 used human intestinal epithelial cells (FHs 74 Int) with results in Table 8-4. […]
experimental.readout: Response rate % (average)

In [3]: df
Out[3]:
                                   molecule       experimental_readout  value
0  CC(C)Cc1ccc(C(C)C(=O)OCO/N=[N+](\[O-])N(C)C)cc1 (centres unmarked) [Compound A4]  Response rate % (average)     3%
1  CC(=O)Oc1ccccc1C(=O)Oc1cccc(CO[N+](=O)[O-])c1 [Compound A2]  Response rate % (average)    18%
2  CC(=O)Oc1ccccc1C(=O)OCOC(=O)CCCCCO[N+](=O)[O-] [Compound A3]  Response rate % (average)    20%
3  COc1ccc2cc(C(C)C(=O)OCCCCO[N+](=O)[O-])ccc2c1 (centres unmarked) [Compound A5]  Response rate % (average)    13%
4  CC(C(=O)OCCCO[N+](=O)[O-])c1ccc(-c2ccccc2)c(F)c1 (centres unmarked) [Compound A1]  Response rate % (average)    19%

* * *

Test system: HUVEC cells
Assay: CCK-8 cell viability: alleviation of proliferative toxicity of anti-tumor agents on HUVEC cells (Tables 7-1, 7-2)
Format: cell-based
Details: Regorafenib (5 μM), NO-NSAID 1 μM
In this section, each of the compounds is paired with its reported NO-NSAID response rate % (average).
experimental.readout: NO-NSAID response rate % (average) (%)

In [3]: df
Out[3]:
                                   compound  value
0  CC(C(=O)OCCCO[N+](=O)[O-])c1ccc(-c2ccccc2)c(F)c1 (centres unmarked)     27
1  COc1ccc2cc(C(C)C(=O)OCCCCO[N+](=O)[O-])ccc2c1 (centres unmarked)     46
2  CC(=O)Oc1ccccc1C(=O)Oc1cccc(CO[N+](=O)[O-])c1     30
3  CC(C)Cc1ccc(C(C)C(=O)OCO/N=[N+](\[O-])N(C)C)cc1 (centres unmarked)     26
4  CC(=O)Oc1ccccc1C(=O)OCOC(=O)CCCCCO[N+](=O)[O-]     37

* * *

Tested on: HUVEC cells
Test: CCK-8 cell viability: alleviation of proliferative toxicity of anti-tumor agents on HUVEC cells (Tables 7-1, 7-2)
Format: cell-based
Conditions: Selumetinib (5 μM), NO-NSAID 100 μM
experimental.readout: NO-NSAID response rate % (average) (%)

>>> df
                                   compound                experimental_readout  value
0  CC(=O)Oc1ccccc1C(=O)Oc1cccc(CO[N+](=O)[O-])c1 [Compound A2]  NO-NSAID response rate % (average)     83
1  CC(=O)Oc1ccccc1C(=O)OCOC(=O)CCCCCO[N+](=O)[O-] [Compound A3]  NO-NSAID response rate % (average)     49
2  CC(C)Cc1ccc(C(C)C(=O)OCO/N=[N+](\[O-])N(C)C)cc1 (centres unmarked) [Compound A4]  NO-NSAID response rate % (average)     34
3  COc1ccc2cc(C(C)C(=O)OCCCCO[N+](=O)[O-])ccc2c1 (centres unmarked) [Compound A5]  NO-NSAID response rate % (average)     61
4  CC(C(=O)OCCCO[N+](=O)[O-])c1ccc(-c2ccccc2)c(F)c1 (centres unmarked) [Compound A1]  NO-NSAID response rate % (average)     51

* * *

Recorded measurements of NO-NSAID response rate % (average), one per entry
Test system: HUVEC cells
Test: CCK-8 cell viability: alleviation of proliferative toxicity of anti-tumor agents on HUVEC cells (Tables 7-1, 7-2)
Type: cell-based
Conditions: Selumetinib (5 μM), NO-NSAID 500 μM
experimental.readout: NO-NSAID response rate % (average)

>>> print(df.to_string())
                                   compound  value
0  COc1ccc2cc(C(C)C(=O)OCCCCO[N+](=O)[O-])ccc2c1 (centres unmarked) [Compound A5]    26%
1  CC(C(=O)OCCCO[N+](=O)[O-])c1ccc(-c2ccccc2)c(F)c1 (centres unmarked) [Compound A1]    25%
2  CC(=O)Oc1ccccc1C(=O)Oc1cccc(CO[N+](=O)[O-])c1 [Compound A2]    30%
3  CC(=O)Oc1ccccc1C(=O)OCOC(=O)CCCCCO[N+](=O)[O-] [Compound A3]    34%
4  CC(C)Cc1ccc(C(C)C(=O)OCO/N=[N+](\[O-])N(C)C)cc1 (centres unmarked) [Compound A4]    41%

* * *

Test system: human intestinal epithelial cells (FHs 74 Int)
Test: CCK-8 cell viability: alleviation of proliferative toxicity of anti-tumor agents on FHs 74 Int (Table 8-4)
Format: cell-based
Conditions: Sorafenib (5 μM), NO-NSAID 100 μM
experimental.readout: Response rate % (average) (%)

>>> print(df.to_string())
                                   compound  value
0  CC(C)Cc1ccc(C(C)C(=O)OCO/N=[N+](\[O-])N(C)C)cc1 (centres unmarked) [Compound A4]     24
1  CC(=O)Oc1ccccc1C(=O)Oc1cccc(CO[N+](=O)[O-])c1 [Compound A2]     26
2  CC(C(=O)OCCCO[N+](=O)[O-])c1ccc(-c2ccccc2)c(F)c1 (centres unmarked) [Compound A1]     17
3  COc1ccc2cc(C(C)C(=O)OCCCCO[N+](=O)[O-])ccc2c1 (centres unmarked) [Compound A5]     24
4  CC(=O)Oc1ccccc1C(=O)OCOC(=O)CCCCCO[N+](=O)[O-] [Compound A3]     26

* * *

Tested on: HUVEC cells
Assay: CCK-8 cell viability: alleviation of proliferative toxicity of anti-tumor agents on HUVEC cells (Tables 7-1, 7-2)
Assay type: cell-based
Conditions: Homo sapiens, 24 h, Anlotinib (5 μM), NO-NSAID 100 μM, percentage increase in viable cells vs anti-tumor agent alone, read-out: Response rate % (average)
Here, each record is paired with measured activation at 100 µM data.
experimental.readout: activation at 100 µM

>>> df
                                   compound  target_entity  experimental_readout  value
0  CC(C(=O)OCCCO[N+](=O)[O-])c1ccc(-c2ccccc2)c(F)c1 (stereo not shown)    HUVEC cells  activation at 100 µM    16%
1  CC(C)Cc1ccc(C(C)C(=O)OCO/N=[N+](\[O-])N(C)C)cc1 (stereo not shown)    HUVEC cells  activation at 100 µM    67%
2  CC(=O)Oc1ccccc1C(=O)OCOC(=O)CCCCCO[N+](=O)[O-]    HUVEC cells  activation at 100 µM    73%
3  COc1ccc2cc(C(C)C(=O)OCCCCO[N+](=O)[O-])ccc2c1 (stereo not shown)    HUVEC cells  activation at 100 µM    57%

* * *

System: HUVEC cells
Experiment: CCK-8 cell viability: alleviation of proliferative toxicity of anti-tumor agents on HUVEC cells (Tables 7-1, 7-2)
Assay type: cell-based
Conditions: Cabozantinib (5 μM), NO-NSAID 0.1 μM
Each record here notes measured NO-NSAID response rate % (average).
experimental.readout: NO-NSAID response rate % (average) (%)

>>> print(df.to_string())
                                   compound  target_entity                experimental_readout  value
0  CC(C)Cc1ccc(C(C)C(=O)OCO/N=[N+](\[O-])N(C)C)cc1 (centres unmarked)    HUVEC cells  NO-NSAID response rate % (average)      3
1  CC(C(=O)OCCCO[N+](=O)[O-])c1ccc(-c2ccccc2)c(F)c1 (centres unmarked)    HUVEC cells  NO-NSAID response rate % (average)     10
2  CC(=O)Oc1ccccc1C(=O)OCOC(=O)CCCCCO[N+](=O)[O-]    HUVEC cells  NO-NSAID response rate % (average)     14
3  COc1ccc2cc(C(C)C(=O)OCCCCO[N+](=O)[O-])ccc2c1 (centres unmarked)    HUVEC cells  NO-NSAID response rate % (average)      1
4  CC(=O)Oc1ccccc1C(=O)Oc1cccc(CO[N+](=O)[O-])c1    HUVEC cells  NO-NSAID response rate % (average)      3
